assay_details: Solubility of Compound 3 in solvents
Type: physicochemical
condition: organic solvent or mixture; acetonitrile, methanol, ethanol, isopropyl alcohol, acetone; read-out: solubility

compound | solubility
CC(C)(CO)c1cc2cc(NC(=O)C3(c4ccc5c(c4)OC(F)(F)O5)CC3)c(F)cc2n1C[C@H](O)CO [Compound 3] | > 20 mg/mL
